TD50 at 1 h for assorted compounds
Assay: Neurotoxicity by performing a rotarod test in mouse after 1 hr of administration
Type: toxicity, organism-based
Conditions: in vivo

- structure as smiles: "CCCCCCOc1ccccc1-c1nnc(N(C)N)s1.Cl"
  TD50 at 1 h: "~160 mg/kg"
- structure as smiles: "CN(C)N(C)c1nnc(-c2ccccc2-c2ccccc2)s1.Cl"
  TD50 at 1 h: "> 800 mg/kg"
- structure as smiles: "Cc1ccccc1-c1nnc(N(N)Cc2ccccc2)s1"
  TD50 at 1 h: "> 200 mg/kg"

====

System: Mus musculus
Experiment: Anticonvulsant activity tested by maximal electroshock test (MES) in mouse after 1 hr of administration
Assay type: functional

- structure as smiles: "Cc1ccccc1-c1nnc(N(C)N(C)C)s1"
  qualifier sign: "="
  ED50 (mg/kg): 25
- structure as smiles: "CNN(c1nnc(-c2ccccc2Cl)s1)C(C)C"
  qualifier sign: ">"
  ED50 (mg/kg): 100
- structure as smiles: "Cc1ccccc1-c1nnc(NN)s1.Cl"
  qualifier sign: ">"
  ED50 (mg/kg): 100
- structure as smiles: "CN(N)c1nnc(Cc2ccccc2)s1.Cl"
  qualifier sign: "="
  ED50 (mg/kg): 11
- structure as smiles: "CNN(C)c1nnc(-c2ccccc2Cl)s1"
  qualifier sign: "="
  ED50 (mg/kg): 43
- structure as smiles: "CCCCCCOc1ccccc1-c1nnc(N(C)NC)s1.Cl"
  qualifier sign: "<"
  ED50 (mg/kg): 250
- structure as smiles: "CN(N)c1nnc(-c2ccccc2Oc2ccccc2)s1.Cl"
  qualifier sign: "="
  ED50 (mg/kg): 33
- structure as smiles: "CN(N)c1nnc(-c2ccccc2Cc2ccccc2)s1.Cl"
  qualifier sign: "="
  ED50 (mg/kg): 50
- structure as smiles: "CNN(C)c1nnc(-c2ccccc2C)s1"
  qualifier sign: "="
  ED50 (mg/kg): 10
- structure as smiles: "CC(C)N(N)c1nnc(-c2ccccc2-c2ccccc2)s1"
  qualifier sign: ">"
  ED50 (mg/kg): 100
- structure as smiles: "CN(NC1CCCC1)c1nnc(-c2ccccc2Cl)s1.Cl"
  qualifier sign: "="
  ED50 (mg/kg): 106
- structure as smiles: "Cc1ccccc1-c1nnc(N(N)c2ccccc2)s1"
  qualifier sign: ">"
  ED50 (mg/kg): 100
- structure as smiles: "CN(N)c1nnc(-c2ccccc2Cl)s1.Cl"
  qualifier sign: "="
  ED50 (mg/kg): 20
- structure as smiles: "CN(C)N(C)c1nnc(-c2ccccc2Cl)s1.Cl"
  qualifier sign: "="
  ED50 (mg/kg): 53
- structure as smiles: "NN(c1ccccc1)c1nnc(-c2ccccc2Cl)s1"
  qualifier sign: ">"
  ED50 (mg/kg): 100
- structure as smiles: "CC(C)NNc1nnc(-c2ccccc2Cl)s1"
  qualifier sign: "="
  ED50 (mg/kg): 50
- structure as smiles: "Cc1ccccc1-c1nnc(NNC(c2ccccc2)c2ccccc2)s1"
  qualifier sign: ">"
  ED50 (mg/kg): 200
- structure as smiles: "NN(CCc1ccccc1)c1nnc(-c2ccccc2Cl)s1"
  qualifier sign: ">"
  ED50 (mg/kg): 100
- structure as smiles: "CC(C)NNc1nnc(-c2ccccc2-c2ccccc2)s1"
  qualifier sign: "="
  ED50 (mg/kg): 35
- structure as smiles: "Cl.NN(Cc1ccccc1)c1nnc(-c2ccccc2-c2ccccc2)s1"
  qualifier sign: ">"
  ED50 (mg/kg): 200
- structure as smiles: "Cc1ccccc1-c1nnc(NN(C)C)s1.Cl"
  qualifier sign: "="
  ED50 (mg/kg): 60
- structure as smiles: "Cl.NN(c1nnc(-c2ccccc2Cl)s1)C1CCCCC1"
  qualifier sign: ">"
  ED50 (mg/kg): 100
